test system: Strep. mitis L796 (clinical isolate); assay: MIC, standard broth dilution test; format: cell-based, Streptococcus mitis; settings: Todd-Hewitt broth, 24 h; inoculum about 10^4-10^5 cfu/ml
Give measured M.I.C. for each item. Keep answers brief.
One number for each entry, in microgram/ml.

For orientation, consider the following solved cases.
{"compound": "CCC(C)CCCCCCC(=O)N[C@H]1[C@H](Oc2c3cc4cc2Oc2ccc(cc2Cl)C(O[C@@H]2O[C@H](CO)[C@@H](O)[C@H](O)[C@H]2NC(C)=O)C2NC(=O)C(NC(=O)C4NC(=O)C4NC(=O)C(Cc5ccc(c(Cl)c5)O3)NC(=O)C(N)c3ccc(O)c(c3)Oc3cc(O)cc4c3)c3ccc(O)c(c3)-c3c(O)cc(O)cc3C(C(=O)O)NC2=O)O[C@H](CO)[C@@H](O)[C@@H]1O (stereo partly shown) [DM-TA2-4]", "M.I.C. (microgram/ml)": 0.125}
{"compound": "CCCCCCCCCC(=O)N[C@H]1[C@H](Oc2c3cc4cc2Oc2ccc(cc2Cl)C(O[C@@H]2O[C@H](CO)[C@@H](O)[C@H](O)[C@H]2NC(C)=O)C2NC(=O)C(NC(=O)C4NC(=O)C4NC(=O)C(Cc5ccc(c(Cl)c5)O3)NC(=O)C(N)c3ccc(O)c(c3)Oc3cc(O)cc4c3)c3ccc(O)c(c3)-c3c(O)cc(O)cc3C(C(=O)O)NC2=O)O[C@H](CO)[C@@H](O)[C@@H]1O (stereo partly shown) [DM-TA2-3]", "M.I.C. (microgram/ml)": 0.063}
{"compound": "CC(=O)N[C@H]1[C@H](OC2c3ccc(c(Cl)c3)Oc3cc4cc(c3O[C@@H]3O[C@H](CO)[C@@H](O)[C@H](O)[C@H]3NC(=O)CCCCCCCC(C)C)Oc3ccc(cc3Cl)CC3NC(=O)C(N)c5ccc(O)c(c5)Oc5cc(O)cc(c5)C(NC3=O)C(=O)NC4C(=O)NC3C(=O)NC2C(=O)NC(C(=O)O)c2cc(O)cc(O)c2-c2cc3ccc2O)O[C@H](CO)[C@@H](O)[C@@H]1O (stereo partly shown) [DM-TA2-5]", "M.I.C. (microgram/ml)": 0.063}

Now take the following compound into account.
Q: Reported M.I.C., compound CC(=O)N[C@H]1[C@H](OC2c3ccc(c(Cl)c3)Oc3cc4cc(c3O[C@@H]3O[C@H](CO)[C@@H](O)[C@H](O)[C@H]3NC(=O)CCCCCCC(C)C)Oc3ccc(cc3Cl)CC3NC(=O)C(N)c5ccc(O)c(c5)Oc5cc(O)cc(c5)C(NC3=O)C(=O)NC4C(=O)NC3C(=O)NC2C(=O)NC(C(=O)O)c2cc(O)cc(O)c2-c2cc3ccc2O)O[C@H](CO)[C@@H](O)[C@@H]1O (stereo partly shown) [DM-TA2-2] : ____
Ans: 0.063

---

test system: Haemophilus influenzae L 970 type b ATCC 19418; assay: MIC, standard broth dilution test; assay type: cell-based; settings: Brain Heart broth +1% Supplement C, 48 h; inoculum about 10^4-10^5 cfu/ml
measurement.label: M.I.C. (microgram/ml)
Give bare numbers, in microgram/ml.

Reference set (3 entries):
{"compound": "CC(=O)N[C@H]1[C@H](OC2c3ccc(c(Cl)c3)Oc3cc4cc(c3O[C@@H]3O[C@H](CO)[C@@H](O)[C@H](O)[C@H]3NC(=O)CCCCCCCC(C)C)Oc3ccc(cc3Cl)CC3NC(=O)C(N)c5ccc(O)c(c5)Oc5cc(O)cc(c5)C(NC3=O)C(=O)NC4C(=O)NC3C(=O)NC2C(=O)NC(C(=O)O)c2cc(O)cc(O)c2-c2cc3ccc2O)O[C@H](CO)[C@@H](O)[C@@H]1O (stereo partly shown)", "reported.value": 32}
{"compound": "CCCCCCCCCC(=O)N[C@H]1[C@H](Oc2c3cc4cc2Oc2ccc(cc2Cl)C(O[C@@H]2O[C@H](CO)[C@@H](O)[C@H](O)[C@H]2NC(C)=O)C2NC(=O)C(NC(=O)C4NC(=O)C4NC(=O)C(Cc5ccc(c(Cl)c5)O3)NC(=O)C(N)c3ccc(O)c(c3)Oc3cc(O)cc4c3)c3ccc(O)c(c3)-c3c(O)cc(O)cc3C(C(=O)O)NC2=O)O[C@H](CO)[C@@H](O)[C@@H]1O (stereo partly shown)", "reported.value": 64}
{"compound": "CCC(C)CCCCCCC(=O)N[C@H]1[C@H](Oc2c3cc4cc2Oc2ccc(cc2Cl)C(O[C@@H]2O[C@H](CO)[C@@H](O)[C@H](O)[C@H]2NC(C)=O)C2NC(=O)C(NC(=O)C4NC(=O)C4NC(=O)C(Cc5ccc(c(Cl)c5)O3)NC(=O)C(N)c3ccc(O)c(c3)Oc3cc(O)cc4c3)c3ccc(O)c(c3)-c3c(O)cc(O)cc3C(C(=O)O)NC2=O)O[C@H](CO)[C@@H](O)[C@@H]1O (stereo partly shown)", "reported.value": 64}

Kindly review the next compound as well.
Q: Need M.I.C. of CC(=O)N[C@H]1[C@H](OC2c3ccc(c(Cl)c3)Oc3cc4cc(c3O[C@@H]3O[C@H](CO)[C@@H](O)[C@H](O)[C@H]3NC(=O)CCCCCCC(C)C)Oc3ccc(cc3Cl)CC3NC(=O)C(N)c5ccc(O)c(c5)Oc5cc(O)cc(c5)C(NC3=O)C(=O)NC4C(=O)NC3C(=O)NC2C(=O)NC(C(=O)O)c2cc(O)cc(O)c2-c2cc3ccc2O)O[C@H](CO)[C@@H](O)[C@@H]1O (stereo partly shown) , thanks.
Ans: 64
